Data provenance: patent US9994552B2

# experimental system: Kit D816V kinase activity (Kit autophosphorylation at tyrosine 719) (Homo sapiens (Human), UniProt P10721, D816V/V560G)
# Sequence (P10721 26-976 V560G/D816V): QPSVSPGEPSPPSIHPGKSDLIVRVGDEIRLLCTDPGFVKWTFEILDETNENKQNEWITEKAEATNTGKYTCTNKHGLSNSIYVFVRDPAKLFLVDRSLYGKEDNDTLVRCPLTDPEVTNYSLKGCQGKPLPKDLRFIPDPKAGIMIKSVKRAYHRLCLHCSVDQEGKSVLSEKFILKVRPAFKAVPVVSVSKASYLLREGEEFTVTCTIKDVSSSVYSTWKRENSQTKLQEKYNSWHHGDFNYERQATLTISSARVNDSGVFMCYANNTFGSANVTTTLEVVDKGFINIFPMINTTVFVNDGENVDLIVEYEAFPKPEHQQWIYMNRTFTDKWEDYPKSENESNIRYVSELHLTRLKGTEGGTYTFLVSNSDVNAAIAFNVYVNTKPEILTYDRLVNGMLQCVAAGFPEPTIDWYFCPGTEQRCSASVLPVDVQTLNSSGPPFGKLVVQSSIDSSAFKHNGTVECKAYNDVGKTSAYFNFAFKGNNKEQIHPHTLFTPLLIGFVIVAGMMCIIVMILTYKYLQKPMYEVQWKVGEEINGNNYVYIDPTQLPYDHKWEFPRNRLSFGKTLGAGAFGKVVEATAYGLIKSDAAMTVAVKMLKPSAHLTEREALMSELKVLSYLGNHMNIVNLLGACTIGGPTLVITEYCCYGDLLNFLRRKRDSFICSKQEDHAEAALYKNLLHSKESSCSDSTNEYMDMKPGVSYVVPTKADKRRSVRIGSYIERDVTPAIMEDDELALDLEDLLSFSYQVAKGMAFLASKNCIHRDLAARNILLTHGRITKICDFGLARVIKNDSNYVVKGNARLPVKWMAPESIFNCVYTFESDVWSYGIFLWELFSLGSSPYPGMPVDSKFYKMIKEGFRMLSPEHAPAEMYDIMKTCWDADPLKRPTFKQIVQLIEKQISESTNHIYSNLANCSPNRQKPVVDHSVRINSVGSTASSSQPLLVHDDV
# method description: HMC1.2 Autophosphorylation Assay (AlphaLISA phospho-Y719 c-Kit)
measured quantity: IC50

Solved entries (count: 8):
COc1cc2ncnc(N3CCN(c4ncc(Nc5ccccc5)cn4)CC3)c2cc1OC    100 to 1000 nM
COc1cc2ncnc(N3CCN(c4ncc(Cc5ccccc5)cn4)CC3)c2cc1OCC1CNCCO1 (stereo not drawn)    10 to 100 nM
COc1cc2ncnc(N3CCN(c4ncc(Cc5ccccc5)cn4)CC3)c2cc1OCC(O)CO (stereo not drawn)    100 to 1000 nM
COc1cc2ncnc(N3CCN(c4ncc(COc5ccccc5)cn4)CC3)c2cc1OC    100 to 1000 nM
COc1cc2ncnc(N3CCN(c4ncc(Cc5ccccc5)cn4)CC3)c2cc1OC1CCN(C)CC1    100 to 1000 nM
COc1cc2c(N3CCN(c4ncc(Cc5ccccc5)cn4)CC3)ncnc2cc1OCCN1CCCC1=O    100 to 1000 nM
COc1cc2c(N3CCN(c4ncc(Cc5ccccc5)cn4)CC3)ncnc2cc1OCC(O)CO (stereo not drawn)    100 to 1000 nM
COc1cc2ncnc(N3CCN(c4ncc(Cc5ccccc5)cn4)CC3)c2cc1OCC1CCN(C)CC1    10 to 100 nM

Item under review: COc1cc2ncnc(N3CCN(c4ncc(Cc5ccccc5)cn4)CC3)c2cc1OCC1CCNC(=O)C1 (stereo not drawn) . Reported IC50? 10 to 100 nM

Note, next up: COc1cc2ncnc(N3CCN(c4ncc(Cc5ccccc5)cn4)C(C)C3)c2cc1OC (stereo not drawn) 100 to 1000 nM

Now the same for COc1cc2ncnc(N3CCN(c4ncc(Cc5ccccc5)c(N)n4)CC3)c2cc1OCC1CCN(C)CC1 < 10 nM

Note, next up: COc1cc2c(N3CCN(c4ncc(Cc5ccccc5)cn4)CC3)ncnc2cc1OCCCN1CCCCC1 1000 to 10000 nM
